All values here come from ChEMBL document CHEMBL1862790.

# assay: DNDI: Cytotoxicity against L-6 rat myoblasts from skeletal muscle cells
# settings: L6 rat skeletal muscle myoblast cells, IC50
assay_metric: IC50

Examples with answers:
- compound: "Cn1cc(C(=O)N2CCC(NC(c3ccc(C(F)(F)F)cc3)c3cccnc3)CC2)cn1 (stereo not given)"
  meas_value: "> 100 µM"
- compound: "CN(C)C(=O)N1CCC(NC(c2ccc(Cl)cc2)c2cccnc2)CC1 (stereo not given)"
  meas_value: "> 100 µM"
- compound: "O=C(NC1CCN(C(c2ccc(C(F)(F)F)cc2)c2cnccn2)CC1)C1CCCCC1 (stereo not given)"
  meas_value: "> 100 µM"
- compound: "CCOC(=O)N1CCN(C(c2ccc(Cl)cc2)c2cccnc2)CC1 (stereo not given)"
  meas_value: "83.2 µM"

Kindly consider the entry below.
## Input Which value of IC50 has been reported for N#Cc1ccc(C(O)(c2ccc(Cl)cc2)c2cccnc2)cc1 (stereo not given) in the records?
## Output > 100 µM

###

# IC50 listing for each entry below
# Test system: L6
# assay: DNDI: Cytotoxicity against L-6 rat myoblasts from skeletal muscle cells
# settings: L6 rat skeletal muscle myoblast cells
Your answer should be a plain number; it is taken to be in µM.

- compound: "O=S(=O)(c1ccc(Cl)cc1)N1CCN(C(c2ccc(Cl)cc2)c2cccnc2)CC1 (configuration not stated)"
  IC50 / µM: 23
- compound: "FC(F)(F)c1ccc(N2CCC(NC(c3ccc(Cl)cc3)c3cccnc3)CC2)nc1 (configuration not stated)"
  IC50 / µM: 62.5
- compound: "CC(C)c1ccc(S(=O)(=O)N2CCN(C(c3ccc(Cl)cc3)c3cccnc3)CC2)cc1 (configuration not stated)"
  IC50 / µM: 80.2
- compound: "FC(F)(F)c1ccc(N2CCC(NC(c3ccc(Cl)cc3)c3cccnc3)CC2)cn1 (configuration not stated)"
  IC50 / µM: 54.4

## Input Give its IC50 value. Item: Fc1cc(Cl)ccc1C(NC1CCN(c2ccc(C(F)(F)F)cc2F)CC1)c1cccnc1 (configuration not stated)
## Output 53

## Input Field request: IC50 | item: OC(c1ccc(Cl)cc1)(c1ccc(C(F)(F)F)cc1)c1cccnc1 (configuration not stated)
## Output 56.4

###

Each entry below carries its reported pIC50.
# assay: DNDI: Cytotoxicity against L-6 rat myoblasts from skeletal muscle cells
# settings: L6 rat skeletal muscle myoblast cells, IC50
pIC50: −log10 of the molar value.

- compound: "CC(C)c1ccc(S(=O)(=O)N2CCN(C(c3cncnc3)c3ccc(Cl)cc3F)CC2)cc1 (configuration not stated)"
  pIC50: "< 4.00"
- compound: "CCN1CCN(C(c2ccc(Cl)cc2)c2cccnc2)CC1 (configuration not stated)"
  pIC50: "< 4.00"
- compound: "CCN(CC)C(=O)NC1CCN(C(c2ccc(C#N)cc2)c2cccnc2)CC1 (configuration not stated)"
  pIC50: "< 4.00"
- compound: "CN(C)C(=O)NC1CCN(C(c2ccc(Cl)cc2)c2cccnc2)CC1 (configuration not stated)"
  pIC50: "< 4.00"
- compound: "Cc1cc(C(=O)NC2CCN(C(c3cncnc3)c3ccc(Cl)cc3F)CC2)no1 (configuration not stated)"
  pIC50: "< 4.00"

## Input For the compound O=C(C1CC1)N1CCN(C(c2cncnc2)c2ccc(Cl)cc2F)CC1 (configuration not stated) , what pIC50 is on record?
## Output < 4.00

## Input So what does the record say about pIC50 for O=C(C1CC1)N1CCC(NC(c2cccnc2)c2ccc(Cl)cc2F)CC1 (configuration not stated) ?
## Output < 4.00

## Input Quick check: pIC50 of N#Cc1ccc(C(c2cccnc2)N2CCC(NC(=O)c3ccc(F)cc3C(F)(F)F)CC2)cc1 (configuration not stated) ?
## Output 4.11

## Input Please report the recorded pIC50 for `O/N=C(\c1ccc(Cl)cc1)c1ccccc1Cl` .
## Output 4.26

## Input Request the reported pIC50 associated with O=C(NC1CCN(C(c2ccc(Cl)cc2)c2cncnc2)CC1)C1CC1 (configuration not stated)
## Output < 4.00

## Input Entry under review: CC(C)Oc1ccc(C(c2cccnc2)N(C(=O)C2CC2)C2CCN(C(=O)C3CC3)CC2)cc1 (configuration not stated) . Reported pIC50?
## Output < 4.00

## Input // query pIC50 value for entry N#Cc1ccc(C(c2cccnc2)N2CCC(NC(=O)c3ccc(F)cc3)CC2)cc1 (configuration not stated)
## Output < 4.00

## Input Request the reported pIC50 associated with OC(c1cccnc1)(c1cncnc1)c1ccccc1Cl (configuration not stated)
## Output < 4.00

## Input Please give the measured pIC50 for this compound: CC(C)CC(=O)NC1CCN(C(c2ccc(C(F)(F)F)cc2)c2cnccn2)CC1 (configuration not stated)
## Output < 4.00

## Input Item under review: CC(C)C(=O)NC(c1ccc(C(F)(F)F)cc1)c1cnccn1 (configuration not stated) . Reported pIC50?
## Output < 4.00

## Input Requested field: pIC50. Item: O=C(NC1CCN(C(c2cncnc2)c2ccc(Cl)cc2F)CC1)c1ccccc1 (configuration not stated)
## Output 4.08

## Input Look up pIC50: CS(=O)(=O)N1CCN(C(c2ccc(Cl)cc2)c2cncnc2)CC1 (configuration not stated)
## Output < 4.00

## Input Recorded pIC50 for CC(C)CC(=O)NC(c1ccc(C(F)(F)F)cc1)c1cnccn1 (configuration not stated) , please?
## Output < 4.00

## Input Bench note: what pIC50 did Cn1cc(C(=O)NC2CCN(C(c3ccc(C#N)cc3)c3cccnc3)CC2)c(C(F)(F)F)n1 (configuration not stated) show?
## Output < 4.00

## Input What does the data say about its pIC50? Entry: O=C(NC(c1ccc(Cl)cc1)c1cccnc1)c1ccc(Cl)cc1 (configuration not stated)
## Output 4.24

## Input # lookup: pIC50 of `CC(C)CCON=C(Cc1cccnc1)c1ccc(Cl)cc1Cl`
## Output 4.21

## Input Given the compound `CON=C(c1ccc(C(F)(F)F)cc1)c1cccnc1` , what is its reported pIC50?
## Output 4.15
